MEASURED_TARGET: rat RabGGT (Rattus norvegicus, UniProt Q08602+Q08603)
Construct: purchased Calbiochem 345855; host or cells: Sf9/baculovirus
Sequence (Q08602 whole entry): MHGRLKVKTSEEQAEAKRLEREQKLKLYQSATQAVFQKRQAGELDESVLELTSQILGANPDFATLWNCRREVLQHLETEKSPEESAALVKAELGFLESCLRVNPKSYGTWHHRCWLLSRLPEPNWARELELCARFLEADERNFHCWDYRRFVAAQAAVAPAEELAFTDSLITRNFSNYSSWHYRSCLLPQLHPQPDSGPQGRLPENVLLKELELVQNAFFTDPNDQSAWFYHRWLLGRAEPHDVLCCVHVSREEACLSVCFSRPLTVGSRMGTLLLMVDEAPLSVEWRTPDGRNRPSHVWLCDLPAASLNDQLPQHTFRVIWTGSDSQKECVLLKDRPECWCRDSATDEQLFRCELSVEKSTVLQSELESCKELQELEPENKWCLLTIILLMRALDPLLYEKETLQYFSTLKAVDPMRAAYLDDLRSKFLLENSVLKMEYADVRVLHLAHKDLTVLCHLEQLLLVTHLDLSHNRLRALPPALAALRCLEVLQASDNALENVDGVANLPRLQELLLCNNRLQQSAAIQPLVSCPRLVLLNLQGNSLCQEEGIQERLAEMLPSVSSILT
Sequence (Q08603 whole entry): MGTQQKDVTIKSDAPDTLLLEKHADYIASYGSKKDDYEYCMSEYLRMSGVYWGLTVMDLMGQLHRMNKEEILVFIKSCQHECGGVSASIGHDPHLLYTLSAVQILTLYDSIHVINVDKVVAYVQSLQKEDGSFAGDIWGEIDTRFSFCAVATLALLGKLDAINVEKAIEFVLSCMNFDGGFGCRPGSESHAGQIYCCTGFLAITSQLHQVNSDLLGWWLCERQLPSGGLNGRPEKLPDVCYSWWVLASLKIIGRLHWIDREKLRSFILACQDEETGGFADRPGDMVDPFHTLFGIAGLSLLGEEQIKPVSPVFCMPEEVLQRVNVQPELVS
ASSAY_COMMENT: RabGGT filter binding assay: transfer of (3H)geranylgeranyl from 3H-GGPP to recombinant Rab3A
Format: biochemical
CONDITION_DETAILS: recombinant rat RabGGT, Rab3A, REP-1, 30 minute at 37° C.
pIC50: −log10 of the molar value.
ENDPOINT_LABEL: pIC50

(a) Cn1cncc1CN1CC(N(Cc2ccsc2)S(=O)(=O)c2ccccn2)Cc2cc(C#N)ccc21 (centres unmarked) [Compound 7P]
(b) COc1ccc(S(=O)(=O)N2Cc3cc(C#N)ccc3N(Cc3cnc[nH]3)C[C@H]2Cc2ccccc2)cc1 [Compound 7A]
Endpoint returns the identifier whose pIC50 is numerically larger, either a or b . Selection: enter the item's label. b
(b: 7.44, a: 7.08)

(P) Cc1nc(CN(C2Cc3cc(C#N)ccc3N(Cc3cncn3C)C2)S(=O)(=O)c2ccccn2)cs1 (centres unmarked) [Compound 7T]
(Q) COc1ccc(S(=O)(=O)N2Cc3cc(C#N)ccc3N(Cc3cncn3C)C[C@H]2Cc2ccccc2)cc1 [Compound 7I]
Endpoint returns the identifier whose pIC50 is numerically larger, either P or Q . Selection: enter the item's label. Q
